Experimental target: T1, GFP-Pif1 K387A (Saccharomyces cerevisiae, UniProt P07271 40-859, K387A)
T1 sequence: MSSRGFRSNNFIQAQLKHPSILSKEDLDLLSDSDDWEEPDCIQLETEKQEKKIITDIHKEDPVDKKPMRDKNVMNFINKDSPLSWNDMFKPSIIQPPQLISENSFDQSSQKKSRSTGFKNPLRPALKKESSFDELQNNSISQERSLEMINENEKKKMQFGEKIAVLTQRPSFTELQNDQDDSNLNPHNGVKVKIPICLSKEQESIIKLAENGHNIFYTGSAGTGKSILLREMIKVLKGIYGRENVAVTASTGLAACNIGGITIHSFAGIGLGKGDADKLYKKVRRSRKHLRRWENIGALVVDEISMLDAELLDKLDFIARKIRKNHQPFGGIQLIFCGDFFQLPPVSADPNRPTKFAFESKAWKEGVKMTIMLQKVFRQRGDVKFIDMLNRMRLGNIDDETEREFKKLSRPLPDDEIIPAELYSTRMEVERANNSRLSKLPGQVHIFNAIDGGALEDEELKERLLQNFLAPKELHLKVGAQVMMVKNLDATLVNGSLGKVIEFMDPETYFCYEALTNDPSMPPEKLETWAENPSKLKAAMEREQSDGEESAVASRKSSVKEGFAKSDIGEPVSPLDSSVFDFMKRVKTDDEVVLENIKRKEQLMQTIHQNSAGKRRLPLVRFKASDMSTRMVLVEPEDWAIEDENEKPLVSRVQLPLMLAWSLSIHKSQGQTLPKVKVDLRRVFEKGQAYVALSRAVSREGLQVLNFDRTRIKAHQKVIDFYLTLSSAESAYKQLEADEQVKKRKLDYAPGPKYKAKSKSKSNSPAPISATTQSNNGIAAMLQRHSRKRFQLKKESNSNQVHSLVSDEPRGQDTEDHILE
Measurement notes: EMSA; no ATP, 5 mM Mg2+; 35 mM Tris-HCl pH 7.5, 1 mM DTT, 5 mM MgCl2, 60 mM KCl, 0.1 mg/ml BSA, no ATP, 30 min at 30 C; 5 nM ssDNA
Experimental context: protein: recombinant; tags: N-terminal superfolder GFP; Ni-NTA purified; label: 5' Alexa647
Measured endpoint: pKd
Give only the number. pKd is defined as minus log10 of concentration in molar units.

Fill in pKd for record GCTAGCAGTAGCCAGCATCGAACGTACGATCGGTAACGTA (ssDNA) [40-nt ssDNA] 7.54
